Here's what we have: pKi numbers for Procathepsin L (Homo sapiens, UniProt P07711).
pKi: −log10 of the molar value.

Q) Tell me the measured pKi of `CC(C)[C@@H](CNc1ccc(OC(F)(F)F)cc1)NC(=O)[C@@H](CC(=O)N1CCOCC1)c1ccccc1C(F)(F)F` , please.
A) < 4.00

Q) Now this one: `Cc1ccc([C@H](CC(=O)N2CCOCC2)C(=O)N[C@H](CNc2ccc(OC(F)(F)F)cc2)C(C)C)cc1`
A) < 4.00

Q) Now this one: `CC(C)[C@@H](CNc1ccc(OC(F)(F)F)cc1)NC(=O)[C@@H](CC(=O)N1CCOCC1)c1ccc(Cl)cc1`
A) < 4.00

Q) Now this one: `CC(C)[C@@H](CNc1ccc(OC(F)(F)F)cc1)NC(=O)[C@@H](CC(=O)N1CCOCC1)c1cccc(C(F)(F)F)c1`
A) < 4.52

---

- METHOD DESCRIPTION: Half life in Wistar rat at 10 mg/kg. po
- Assay type: ADME, organism-based
- Design: dose 10 mg/kg, route oral
- ASSAY CONDITIONS: in vivo
RESULT TYPE: half-life (h)
Respond with the bare value in h.

Q) Tell me the measured half-life of `O=C(N[C@H](CNc1ccc(OC(F)(F)F)cc1)c1ccccc1)[C@@H](CC(=O)N1CCOCC1)CC1CCCCC1` , please.
A) 1.22

Q) Now this one: `CC(C)[C@@H](CNc1ccc(OC(F)(F)F)cc1)NC(=O)[C@@H](CC(=O)N1CCOCC1)c1ccc(Cl)cc1`
A) 1.82

Q) Now this one: `CCC[C@@H](CNc1ccc(OC(F)(F)F)cc1)NC(=O)[C@@H](CC(=O)N1CCOCC1)CC1CCCCC1`
A) 1.23

Q) Now this one: `C[C@@H](CNc1ccc(OC(F)(F)F)cc1)NC(=O)[C@@H](CC(=O)N1CCOCC1)CC1CCCC1`
A) 0.68

Q) Now this one: `CC(C)[C@@H](CNc1ccc(OC(F)(F)F)cc1)NC(=O)[C@@H](CC(=O)N1CCOCC1)CC1CCCCC1`
A) 1.06

Q) Now this one: `CC(C)[C@@H](CNc1ccc(OC(F)(F)F)cc1)NC(=O)[C@@H](CC(=O)N1CCOCC1)c1ccc(C(F)(F)F)cc1`
A) 2.26

Q) Now this one: `C[C@@H](CNc1ccc(OC(F)(F)F)cc1)NC(=O)[C@@H](CC(=O)N1CCOCC1)CC1CCCCC1`
A) 0.87

Q) Now this one: `C[C@@H](CN1CCc2cc(F)ccc21)NC(=O)[C@@H](CC(=O)N1CCOCC1)CC1CCCCC1`
A) 1.12

Q) Now this one: `CC(C)[C@@H](CNc1ccc(OC(F)(F)F)cc1)NC(=O)[C@@H](CC(=O)N1CCOCC1)c1ccc(F)cc1`
A) 0.97

---

- METHOD DESCRIPTION: AUC in Wistar rat at 10 mg/kg, po
- Format: ADME, organism-based
- Parameters: dose 10 mg/kg, route oral
- ASSAY CONDITIONS: plasma
RESULT TYPE: AUC (µM·h)
Respond with the bare value in µM·h.

Q) Tell me the measured AUC of `CC(C)[C@@H](CNc1ccc(OC(F)(F)F)cc1)NC(=O)[C@@H](CC(=O)N1CCOCC1)CC1CCCCC1` , please.
A) 0.831

Q) Now this one: `C[C@@H](CNc1ccc(OC(F)(F)F)cc1)NC(=O)[C@@H](CC(=O)N1CCOCC1)CC1CCCCC1`
A) 2.78

Q) Now this one: `C[C@@H](CN1CCc2cc(F)ccc21)NC(=O)[C@@H](CC(=O)N1CCOCC1)CC1CCCCC1`
A) 0.048

Q) Now this one: `CCC[C@@H](CNc1ccc(OC(F)(F)F)cc1)NC(=O)[C@@H](CC(=O)N1CCOCC1)CC1CCCCC1`
A) 0.752

Q) Now this one: `CC(C)[C@@H](CNc1ccc(OC(F)(F)F)cc1)NC(=O)[C@@H](CC(=O)N1CCOCC1)c1ccc(Cl)cc1`
A) 2.82

Q) Now this one: `O=C(NCCN1CCc2cc(F)ccc21)[C@H](CC1CCCCC1)NC(=O)N1CCOCC1`
A) 0.312

Q) Now this one: `CC(C)[C@@H](CNc1ccc(OC(F)(F)F)cc1)NC(=O)[C@@H](CC(=O)N1CCOCC1)c1ccccc1`
A) 1.91

Q) Now this one: `C[C@@H](CNc1ccc(OC(F)(F)F)cc1)NC(=O)[C@@H](CC(=O)N1CCOCC1)CC1CCCC1`
A) 0.806
